Cited source for all entries: ChEMBL document CHEMBL5614412

Target: Tyrosine-protein phosphatase non-receptor type 1 (Homo sapiens, UniProt P18031)
Sequence (P18031 whole entry): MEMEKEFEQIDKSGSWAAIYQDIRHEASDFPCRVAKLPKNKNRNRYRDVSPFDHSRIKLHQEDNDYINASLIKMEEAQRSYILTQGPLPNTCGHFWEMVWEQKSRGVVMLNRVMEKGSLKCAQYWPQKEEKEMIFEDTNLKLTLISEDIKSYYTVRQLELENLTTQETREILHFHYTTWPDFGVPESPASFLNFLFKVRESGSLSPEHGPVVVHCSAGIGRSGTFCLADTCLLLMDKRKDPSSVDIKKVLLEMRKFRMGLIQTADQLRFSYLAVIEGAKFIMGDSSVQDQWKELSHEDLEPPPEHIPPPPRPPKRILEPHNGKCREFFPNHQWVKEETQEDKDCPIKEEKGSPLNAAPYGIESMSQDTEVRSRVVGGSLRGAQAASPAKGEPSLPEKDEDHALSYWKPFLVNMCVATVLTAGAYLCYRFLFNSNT
Field: IC50. Provide a value for each of the compounds that follow.
Answers are plain numbers, in nM.

O=C1CN(c2c(O)cc3c(c2F)C[C@H](NCCC(F)F)N3)S(=O)(=O)N1 ... 10

Continue with the next compound.
Reported IC50, compound COc1cc(CC(=O)NC(Cc2ccccc2)C(=O)NC(Cc2ccc(C(F)(F)P(=O)(O)O)cc2)C(=O)N[C@@H](CCCCNC(=O)c2ccc(C)c(Br)c2)C(N)=O)ccc1O (stereo partly drawn) : ____
120

---

Biological target: Tyrosine-protein phosphatase non-receptor type 2 (Homo sapiens, UniProt P17706)
Sequence (P17706 whole entry): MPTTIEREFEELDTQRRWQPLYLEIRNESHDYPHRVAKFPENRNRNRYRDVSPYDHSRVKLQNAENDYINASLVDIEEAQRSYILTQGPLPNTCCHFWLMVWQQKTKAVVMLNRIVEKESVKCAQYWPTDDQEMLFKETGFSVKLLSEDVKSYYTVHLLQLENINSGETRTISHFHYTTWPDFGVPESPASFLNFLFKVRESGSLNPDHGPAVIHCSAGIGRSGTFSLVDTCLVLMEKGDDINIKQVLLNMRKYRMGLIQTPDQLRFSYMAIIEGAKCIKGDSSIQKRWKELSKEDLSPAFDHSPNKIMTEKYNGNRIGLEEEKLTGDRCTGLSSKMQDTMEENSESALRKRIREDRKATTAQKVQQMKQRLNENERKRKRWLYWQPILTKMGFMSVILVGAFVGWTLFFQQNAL
Assay: Inhibition of PTPN2 (unknown origin)
Provide the reported IC50 of each item.
One number for each entry, in nM.

Below: 3 compounds and their reported IC50.
CC1CCN=C(Nc2cc(O)c(N3CC(=O)NS3(=O)=O)c(F)c2)N1 (stereo unspecified) ... 10
CCc1cc(C[C@H](NC(C)=O)C(=O)NCCCCOc2cccc(O)c2C(=O)OC)ccc1N(C(=O)C(=O)O)c1ccccc1C(=O)O ... 65
O=C1CN(c2c(O)cc3c(c2F)C[C@H](NCCC(F)F)N3)S(=O)(=O)N1 ... 10

Reported IC50 for `N#Cc1ccc2cc(Br)c(C(F)(F)P(=O)(O)O)cc2c1` : what is it?
7.1

---

Assay: Inhibition of PTP1B/PTPN2 (unknown origin) in mouse B16 cells
Format: cell-based, Homo sapiens
Please provide measured EC50 for the entries that follow.
One number for each entry, in nM.

CC(C)CCN[C@@H]1CCc2cc(O)c(N3CC(=O)NS3(=O)=O)c(F)c2C1 ... 180

Could you tell me which EC50 is on file for `O=C1CN(c2c(O)cc3ccc(NCC4CC4)cc3c2F)S(=O)(=O)N1` ?
2650
